Half-life (t1/2) for assorted compounds
Biological target: Ornithine decarboxylase (ODC) (Rattus norvegicus, UniProt P09057)
Construct: prepared from the livers of rats which have been injected with thioacetamide; from tissue; host or cells: rat liver (thioacetamide-injected rats), purified about ten fold by acid treatment at pH 4.6
Test: Inhibition of ornithine decarboxylase (ODC) in vitro (partially purified ODC from rat liver, 14CO2 assay, Kitz and Wilson)
Format: biochemical, rats
Parameters: dose or concentration left out as unconfirmed
Reply with just the number (in min).

NC/C=C/C(N)C(F)F (stereo not shown) [DFMDP, 2,2-Difluoro-2,5-diamino-3-(E)-pentene]: 5

Ask | Please give the measured Half-life (t1/2) for this compound: NC/C=C/C(N)(CF)C(=O)O (stereo not shown) [MFMDO]
Reply | 3.1

Ask | Field entry: NC/C=C/C(N)(C(=O)O)C(F)F (stereo not shown) [DFMDO]
Reply | 10.0

Ask | Input NC/C=C/C(N)CF (stereo not shown) [MFMDP, 1-Fluoro-2,5-diamino-3-(E)-pentene]
Reply | 0.9

====

Assay: Acute i.p. toxicity (LD50) in mice
Conditions: mouse, in vivo, ip, acute i.p. injection
MEASURE: LD50

Ask | Fill blank: measured LD50 of the compound NC/C=C/C(N)CF (stereo not shown) [MFMDP, 1-Fluoro-2,5-diamino-3-(E)-pentene] is ____.
Reply | 1000 to 3000 mg/kg

====

Test: in vivo
Type: in vivo, mice
Settings: mouse, in vivo; 2% in drinking water or 200 mg/kg i.p. twice a day; after 10 days; read-out: animals dead
MEASURE: mortality at 240 h (%)
# number only, unit % dropped from output

Ask | # get_value(readout='mortality at 240 h', item= NC/C=C/C(N)CF (stereo not shown) [MFMDP, 1-Fluoro-2,5-diamino-3-(E)-pentene] )
Reply | 15

====

The compounds listed here are annotated with their τ50 (half-life, at infinite concentration of inhibitor).
Biological target: Ornithine decarboxylase (ODC) (Rattus norvegicus)
Construct: prepared from the livers of rats which have been injected with thioacetamide; from tissue; host or cells: rat liver (thioacetamide-injected rats), purified about ten fold by acid treatment at pH 4.6
Assay: Inhibition of ornithine decarboxylase (ODC) in vitro (partially purified ODC from rat liver, 14CO2 assay, Kitz and Wilson)
Format: biochemical, rats
Conditions: 37°, infinite inhibitor concentration, Kitz and Wilson
Return type: number; implicit unit min.

# count of solved cases: 2
NC/C=C/C(N)C(F)F (stereo not shown) [DFMDP, 2,2-Difluoro-2,5-diamino-3-(E)-pentene]: 0.7
NC/C=C/C(N)(CF)C(=O)O (stereo not shown): 2.7

Ask | Could you tell me which τ50 (half-life, at infinite concentration of inhibitor) is on file for NC/C=C/C(N)(C(=O)O)C(F)F (stereo not shown) ?
Reply | 2.5

Ask | Can you handle NC/C=C/C(N)CF (stereo not shown) [MFMDP, 1-Fluoro-2,5-diamino-3-(E)-pentene] next?
Reply | 0.2

====

Molecular target: Ornithine decarboxylase (ODC) (Rattus norvegicus)
Construct: prepared from the livers of rats which have been injected with thioacetamide
Sequence (P09057 1-461): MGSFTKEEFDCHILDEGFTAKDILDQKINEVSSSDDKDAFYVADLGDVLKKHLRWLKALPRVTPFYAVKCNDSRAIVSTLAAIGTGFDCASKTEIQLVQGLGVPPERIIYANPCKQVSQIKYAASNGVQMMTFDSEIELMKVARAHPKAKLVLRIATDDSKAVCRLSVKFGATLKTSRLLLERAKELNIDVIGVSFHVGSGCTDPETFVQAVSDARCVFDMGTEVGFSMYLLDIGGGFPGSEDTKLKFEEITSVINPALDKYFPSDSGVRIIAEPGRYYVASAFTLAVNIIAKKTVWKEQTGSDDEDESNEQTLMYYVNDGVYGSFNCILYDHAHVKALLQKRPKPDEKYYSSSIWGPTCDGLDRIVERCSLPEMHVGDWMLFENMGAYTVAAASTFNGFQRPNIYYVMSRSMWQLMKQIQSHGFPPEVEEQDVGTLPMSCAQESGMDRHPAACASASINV
Assay: Inhibition of ornithine decarboxylase (ODC) in vitro (partially purified ODC from rat liver, 14CO2 assay, Kitz and Wilson)
Settings: 37°, time-dependent inhibition, Kitz and Wilson; read-out: KI (apparent dissociation constant)
MEASURE: pKi
Lab note — pKi values are minus log10 of concentrations in M.

Known results for compounds:
NC/C=C/C(N)(CF)C(=O)O (stereo not shown): 5.55
NC/C=C/C(N)CF (stereo not shown) [MFMDP, 1-Fluoro-2,5-diamino-3-(E)-pentene]: 4.38
NC/C=C/C(N)C(F)F (stereo not shown) [DFMDP, 2,2-Difluoro-2,5-diamino-3-(E)-pentene]: 4.22

Here's the next entry for you.
Ask | Any idea what its pKi is? The compound is NC/C=C/C(N)(C(=O)O)C(F)F (stereo not shown)
Reply | 4.52
